target: EthR protein (Mycobacterium tuberculosis); assay: Inhibition of interaction of EthR with its target DNA sequence (BIAcore); assay type: binding, M. tuberculosis H37Rv; details: compound 3 μM, EthR 540 nM, 37° C.
Sequence (P9WMC1 whole entry, looked up): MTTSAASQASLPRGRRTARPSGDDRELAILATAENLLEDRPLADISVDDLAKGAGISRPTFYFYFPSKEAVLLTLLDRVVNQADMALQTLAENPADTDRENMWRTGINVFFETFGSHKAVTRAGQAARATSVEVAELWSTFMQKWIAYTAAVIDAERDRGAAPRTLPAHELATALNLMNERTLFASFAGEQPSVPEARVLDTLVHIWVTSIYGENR
parameter: inhibition at 3 µM
Please answer using the number first and the unit second.

*Q* What does the data say about its inhibition at 3 µM? Entry: `O=C(CCC(F)(F)F)N1CCC(c2nc(-c3cccs3)no2)CC1`
*A* 96%

*Q* What does the data say about its inhibition at 3 µM? Entry: `[N-]=[N+]=NCC(=O)N1CCC(c2nc(-c3cccs3)no2)CC1`
*A* 33%

*Q* What does the data say about its inhibition at 3 µM? Entry: `O=C(CC1CCCC1)N1CCC(c2nc(-c3cccs3)no2)CC1`
*A* 52%

*Q* What does the data say about its inhibition at 3 µM? Entry: `O=C(CC1CC1)N1CCC(c2nc(-c3cccc(N(Cc4ccccc4)Cc4ccccc4)c3)no2)CC1`
*A* 46%

*Q* What does the data say about its inhibition at 3 µM? Entry: `O=C(Nc1ccccc1)N1CCC(c2nc(-c3cccs3)no2)CC1`
*A* 56%

*Q* What does the data say about its inhibition at 3 µM? Entry: `N#CCC(=O)N1CCC(c2nc(-c3cccs3)no2)CC1`
*A* 28%

*Q* What does the data say about its inhibition at 3 µM? Entry: `O=C(CCC1CCCC1)N1CCC(c2nc(-c3cccs3)no2)CC1`
*A* 48%

*Q* What does the data say about its inhibition at 3 µM? Entry: `N#CCC(=O)N1CCC(c2nc(-c3ccc(Br)s3)no2)CC1`
*A* 77%

*Q* What does the data say about its inhibition at 3 µM? Entry: `O=C(Cc1ccccc1)N1CCC(c2nc(-c3cccs3)no2)CC1`
*A* 45%

*Q* What does the data say about its inhibition at 3 µM? Entry: `[N-]=[N+]=NCC(=O)N1CCC(c2nc(-c3ccsc3)no2)CC1`
*A* 14%

*Q* What does the data say about its inhibition at 3 µM? Entry: `O=C(NC1CC1)N1CCC(c2nc(-c3cccs3)no2)CC1`
*A* 13%

*Q* What does the data say about its inhibition at 3 µM? Entry: `CC(C)CCC(=O)N1CCC(c2nc(-c3cccs3)no2)CC1`
*A* 70%

*Q* What does the data say about its inhibition at 3 µM? Entry: `C=CCCC(=O)N1CCC(c2nc(-c3cccs3)no2)CC1`
*A* 53%

*Q* What does the data say about its inhibition at 3 µM? Entry: `O=C(Nc1cccs1)N1CCC(c2nc(-c3cccs3)no2)CC1`
*A* 96%

*Q* What does the data say about its inhibition at 3 µM? Entry: `[N-]=[N+]=NCC(=O)N1CCC(c2nc(-c3ccc(F)cc3)no2)CC1`
*A* 15%

*Q* What does the data say about its inhibition at 3 µM? Entry: `O=C(Cc1cccs1)N1CCC(c2nc(-c3ccc(Br)s3)no2)CC1`
*A* 34%

*Q* What does the data say about its inhibition at 3 µM? Entry: O=C(CC1C=CCC1)N1CCC(c2nc(-c3cccs3)no2)CC1 (stereo not drawn)
*A* 78%

*Q* What does the data say about its inhibition at 3 µM? Entry: O=C(CC1CC2CCC1C2)N1CCC(c2nc(-c3cccs3)no2)CC1 (stereo not drawn)
*A* 59%

*Q* What does the data say about its inhibition at 3 µM? Entry: `COc1ccc2nc(-c3noc(C4CCN(C(=O)CN=[N+]=[N-])CC4)n3)sc2c1`
*A* 94%

*Q* What does the data say about its inhibition at 3 µM? Entry: `O=C(c1ccccc1)N1CCC(c2nc(-c3cccs3)no2)CC1`
*A* 5%

*Q* What does the data say about its inhibition at 3 µM? Entry: `C#CCCC(=O)N1CCC(c2nc(-c3cccs3)no2)CC1`
*A* 20%

*Q* What does the data say about its inhibition at 3 µM? Entry: `O=C(CC1CC1)N1CCC(c2nc(-c3cccs3)no2)CC1`
*A* 71%

*Q* What does the data say about its inhibition at 3 µM? Entry: `S=C(Nc1ccccc1)N1CCC(c2nc(-c3cccs3)no2)CC1`
*A* 86%

*Q* What does the data say about its inhibition at 3 µM? Entry: `O=C(CC1CCCCC1)N1CCC(c2nc(-c3cccs3)no2)CC1`
*A* 76%

*Q* What does the data say about its inhibition at 3 µM? Entry: `[N-]=[N+]=NCC(=O)N1CCC(c2nc(-c3ccccc3)no2)CC1`
*A* 15%

*Q* What does the data say about its inhibition at 3 µM? Entry: `O=C(Cc1cccs1)N1CCC(c2nc(-c3cccs3)no2)CC1`
*A* 93%

*Q* What does the data say about its inhibition at 3 µM? Entry: `O=S(=O)(Cc1ccccc1)N1CCC(c2nc(-c3cccs3)no2)CC1`
*A* 34%

*Q* What does the data say about its inhibition at 3 µM? Entry: `[N-]=[N+]=NCC(=O)N1CCC(c2nc(-c3ccc4c(c3)OCO4)no2)CC1`
*A* 19%

*Q* What does the data say about its inhibition at 3 µM? Entry: `O=C(COc1ccccc1)N1CCC(c2nc(-c3cccs3)no2)CC1`
*A* 75%

*Q* What does the data say about its inhibition at 3 µM? Entry: `S=C(NC1CC1)N1CCC(c2nc(-c3cccs3)no2)CC1`
*A* 61%
